# maps each entry to its Ki
Target: BACE1 (Memapsin 2) (Homo sapiens, UniProt P56817)
Sequence (P56817 46-501): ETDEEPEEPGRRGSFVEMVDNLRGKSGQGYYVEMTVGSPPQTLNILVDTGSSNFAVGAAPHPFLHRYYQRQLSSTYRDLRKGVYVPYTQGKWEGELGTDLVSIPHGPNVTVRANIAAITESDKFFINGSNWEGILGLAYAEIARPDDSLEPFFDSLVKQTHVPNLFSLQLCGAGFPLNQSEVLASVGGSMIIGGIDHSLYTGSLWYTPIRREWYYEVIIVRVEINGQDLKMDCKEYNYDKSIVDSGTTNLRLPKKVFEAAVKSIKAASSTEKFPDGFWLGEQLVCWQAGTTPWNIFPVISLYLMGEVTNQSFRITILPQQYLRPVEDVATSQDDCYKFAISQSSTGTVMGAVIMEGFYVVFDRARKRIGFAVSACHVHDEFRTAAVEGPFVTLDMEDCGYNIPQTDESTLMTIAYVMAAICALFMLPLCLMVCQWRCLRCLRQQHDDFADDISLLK

Answer with the recorded Ki for the compound listed here: COC(=O)[C@H](NC[C@H](Cc1ccccc1)NC(=O)c1cccc(C(=O)N(C)Cc2nc(C)cs2)c1)[C@@H](C)O
> 1000 µM

Answer with the recorded Ki for the compound listed here: Cc1csc(CN(C)C(=O)c2cccc(C(=O)N[C@H](CN[C@@H]3c4ccccc4C[C@@H]3O)Cc3ccccc3)c2)n1
< 1000 µM

Others:
Answer with the recorded Ki for the compound listed here: CC(C)CNC[C@@H](NC[C@H](Cc1ccccc1)NC(=O)c1cc(C(=O)N[C@H](C)c2ccccc2)cc(N(C)S(C)(=O)=O)c1)[C@@H](O)CC(C)C
< 0.1 µM

----------
Biological target: BACE1 (Memapsin 2) (Homo sapiens)
pKi: −log10 of the molar value.
Reported property: pKi

Answer with the recorded pKi for the compound listed here: C[C@@H](NC(=O)c1cc(C(=O)N[C@H](CN[C@H]2c3ccccc3C[C@H]2O)Cc2ccccc2)cc(N(C)S(C)(=O)=O)c1)c1ccccc1
> 3.00

Answer with the recorded pKi for the compound listed here: COc1cccc([C@H](NC[C@H](Cc2ccccc2)NC(=O)c2cccc(C(=O)N(C)Cc3nc(C)cs3)c2)[C@H](O)Cc2ccccc2)c1
< 3.00

Answer with the recorded pKi for the compound listed here: CC(C)CNC[C@@H](NC[C@H](Cc1ccccc1)NC(=O)c1cc(C(=O)N[C@H](C)c2ccccc2)cc(N(C)S(C)(=O)=O)c1)[C@H](C)O
> 7.00

Others:
Answer with the recorded pKi for the compound listed here: C[C@@H](NC(=O)c1cc(C(=O)N[C@H](CN[C@H](CO)Cc2ccccc2)Cc2ccccc2)cc(N(C)S(C)(=O)=O)c1)c1ccccc1
> 3.00

Answer with the recorded pKi for the compound listed here: Cc1csc(CN(C)C(=O)c2cccc(C(=O)N[C@H](CN[C@H](C(=O)NCC(C)C)[C@H](C)O)Cc3ccccc3)c2)n1
> 3.00
